Test system: cultured murine melanocytes (melan-a)
Test: Melanin assay in cultured murine melanocytes (melan-a)
Type: cell-based
Conditions: Mus musculus, Melan-a, 72 h, melanin formation, melan-a cells, 5 μM compound, 72 hours incubation; read-out: % Inh. @ 5 μM
Protocol: The Spectrum Collection library consisting of 2000 drug compounds or natural products was screened to identify novel pigmentation inhibitors or stimulators in cultured murine melanocytes (melan-a). Compounds were dissolved in dimethylsulfoxide (DMSO) to a final concentration of 10 mM. […] For the primary and secondary screening, cells were harvested and dissolved in 200 μL of 2N NaOH in 20% DMSO at 70° C. A 180-μl aliquot of the resulting solution was measured for absorbance at 490 nm. […]
Where a name gives a salt, the structure may show the parent alone.
Provide the reported inhibition at 5 µM of each item.
Field: numeric (%). Do not append units.

Ask: Consider the molecule shown here: C=C[C@H]1CN2CCC1CC2[C@@H](O)c1ccnc2ccc(OC)cc12 (some centres unmarked) [ID 17, Quinine hydrochloride dihydrate] What is its recorded inhibition at 5 µM?
Reply: 61.5

Ask: Consider the molecule shown here: CC[C@H]1CN2CCC1CC2C(O)c1ccnc2ccc(OC)cc12 (some centres unmarked) [ID 18, Hydroquinine] What is its recorded inhibition at 5 µM?
Reply: 71.7

Ask: Consider the molecule shown here: C=C[C@H]1C[N@@]2CCC1C[C@H]2[C@H](O)c1ccnc2ccc(OC)cc12 [ID 13, Quinine Salicylate] What is its recorded inhibition at 5 µM?
Reply: 60

Ask: Consider the molecule shown here: OC(c1cc(C(F)(F)F)nc2c(C(F)(F)F)cccc12)C1CCCCN1 (centres unmarked) What is its recorded inhibition at 5 µM?
Reply: 75

Ask: Consider the molecule shown here: CC[C@H]1C[N@@]2CCC1C[C@H]2[C@H](O)c1ccnc2ccc(OC)cc12 [ID 19, Hydroquinine hydrobromide hydrate] What is its recorded inhibition at 5 µM?
Reply: 67.4

====

tested on: cultured murine melanocytes (melan-a); assay: Melanin assay in cultured murine melanocytes (melan-a); assay type: cell-based; conditions: Mus musculus, Melan-a, 72 h, melanin formation, melan-a cells, 1 μM compound, 72 hours incubation; read-out: % Inh. @ 1 μM
Where a name gives a salt, the structure may show the parent alone.
Using inhibition at 1 µM as the sorting value, the categories are Low (below 20%), Mid (20% to below 30%), High (30% or more)

Ask: Please indicate the class for C=C[C@H]1CN2CCC1CC2C(O)c1ccnc2ccc(OC)cc12 (stereo partly drawn) based on its inhibition at 1 µM.
Reply: High

Ask: Please indicate the class for CCN(CC)Cc1ccc(Nc2ccnc3cc(Cl)ccc23)cc1O [ID 1, Amodiaquine Dihydrochloride] based on its inhibition at 1 µM.
Reply: Mid

Ask: Please indicate the class for OC(c1cc(C(F)(F)F)nc2c(C(F)(F)F)cccc12)C1CCCCN1 (stereo not drawn) based on its inhibition at 1 µM.
Reply: Low

Ask: Please indicate the class for CC[C@H]1CN2CCC1CC2C(O)c1ccnc2ccc(OC)cc12 (stereo partly drawn) [ID 18, Hydroquinine] based on its inhibition at 1 µM.
Reply: High

Ask: Please indicate the class for C=C[C@H]1C[N@@]2CCC1C[C@H]2[C@H](O)c1ccnc2ccc(OC)cc12 [ID 13, Quinine Salicylate] based on its inhibition at 1 µM.
Reply: High

Ask: Please indicate the class for C=C[C@H]1C[N@]2CC[C@H]1C[C@H]2[C@H](O)c1ccnc2ccccc12 based on its inhibition at 1 µM.
Reply: Mid

Ask: Please indicate the class for C=C[C@H]1CN2CCC1CC2[C@@H](O)c1ccnc2ccc(OC)cc12 (stereo partly drawn) [ID 17, Quinine hydrochloride dihydrate] based on its inhibition at 1 µM.
Reply: Mid

Ask: Please indicate the class for CC[C@H]1CN2CCC1CC2[C@@H](OC(=O)c1ccc(Cl)cc1)c1ccnc2ccc(OC)cc12 (stereo partly drawn) [ID 22, Hydroquinidine 4-chlorobenzoate] based on its inhibition at 1 µM.
Reply: Low

Ask: Please indicate the class for C=C[C@H]1C[N@]2CC[C@H]1C[C@@H]2[C@H](O)c1ccnc2ccccc12 based on its inhibition at 1 µM.
Reply: Low

Ask: Please indicate the class for CC[C@H]1C[N@@]2CCC1C[C@H]2[C@H](O)c1ccnc2ccc(OC)cc12 [ID 19, Hydroquinine hydrobromide hydrate] based on its inhibition at 1 µM.
Reply: Mid

====

tested on: cultured murine melanocytes (melan-a); experiment: Melanin assay in cultured murine melanocytes (melan-a); assay type: cell-based; details: Mus musculus; inhibition of melanin synthesis, melan-a cells; read-out: IC50
Where a name gives a salt, the structure may show the parent alone.
attribute_measured: pIC50
On this scale, pIC50 is minus log10 of a concentration expressed in M (mol/L).

Ask: Form: Entry = OC(c1cc(C(F)(F)F)nc2c(C(F)(F)F)cccc12)C1CCCCN1 (centres unmarked) | System = cultured murine melanocytes (melan-a) | pIC50 = ____
Reply: 5.70

Ask: Form: Entry = CCN(CC)Cc1ccc(Nc2ccnc3cc(Cl)ccc23)cc1O [ID 1, Amodiaquine Dihydrochloride] | System = cultured murine melanocytes (melan-a) | pIC50 = ____
Reply: 5.59

Ask: Form: Entry = CCCCOc1cc(C(=O)NCCN(CC)CC)c2ccccc2n1 [ID 4, Dibucaine Hydrochloride] | System = cultured murine melanocytes (melan-a) | pIC50 = ____
Reply: 4.99

Ask: Form: Entry = C=C[C@H]1C[N@]2CC[C@H]1C[C@H]2[C@H](O)c1ccnc2ccccc12 | System = cultured murine melanocytes (melan-a) | pIC50 = ____
Reply: 4.96

====

Provide the reported inhibition at 5 µM of each item.
test system: cultured murine melanocytes (melan-a); assay: Melanin assay in cultured murine melanocytes (melan-a); type: cell-based; conditions: Mus musculus, Melan-a, 72 h, melanin formation, melan-a cells, 5 μM compound, 72 hours incubation; read-out: % Inh. @ 5 μM
Where a name gives a salt, the structure may show the parent alone.
Field: numeric (%). Do not append units.

Ask: Form: Entry = C=C[C@H]1C[N@]2CC[C@H]1C[C@@H]2[C@H](O)c1ccnc2ccccc12 [ID 10, Cinchonine] | System = cultured murine melanocytes (melan-a) | inhibition at 5 µM = ____
Reply: 30

Ask: Form: Entry = C=C[C@H]1CN2CCC1CC2C(O)c1ccnc2ccc(OC)cc12 (stereo partly shown) [ID 12, Quinine] | System = cultured murine melanocytes (melan-a) | inhibition at 5 µM = ____
Reply: 70.9

Ask: Form: Entry = C=C[C@H]1C[N@]2CC[C@H]1C[C@H]2[C@H](O)c1ccnc2ccccc12 [ID 9, Cinchonidine] | System = cultured murine melanocytes (melan-a) | inhibition at 5 µM = ____
Reply: 35.7

Ask: Form: Entry = CC[C@H]1CN2CCC1CC2[C@@H](OC(=O)c1ccc(Cl)cc1)c1ccnc2ccc(OC)cc12 (stereo partly shown) [ID 22, Hydroquinidine 4-chlorobenzoate] | System = cultured murine melanocytes (melan-a) | inhibition at 5 µM = ____
Reply: 25.5

Ask: Form: Entry = C=CC1CN2CCC1CC2[C@H](O)c1ccnc2ccc(OC)cc12 (stereo partly shown) [ID 16, Quinine hydrobromide] | System = cultured murine melanocytes (melan-a) | inhibition at 5 µM = ____
Reply: 63.9

Ask: Form: Entry = CCN(CC)Cc1ccc(Nc2ccnc3cc(Cl)ccc23)cc1O [ID 1, Amodiaquine Dihydrochloride] | System = cultured murine melanocytes (melan-a) | inhibition at 5 µM = ____
Reply: 79

Ask: Form: Entry = CC[C@H]1CN2CCC1C[C@@H]2[C@@H](O)c1ccnc2ccc(OC)cc12 (stereo partly shown) [ID 8, Hydroquinidine] | System = cultured murine melanocytes (melan-a) | inhibition at 5 µM = ____
Reply: 52.3
